The measured values listed here are drawn from patent US7402696B2.

# measurement_target: ACC (acetyl CoA carboxylase) purified from liver of male SD rat (Rattus norvegicus)
# Construct: applied to a monomeric avidin sepharose column, and washed with buffer B. The ACC was eluted with buffer B containing 2 mM d-biotin; from tissue; host or cells: liver of male SD rat
# measurement_description: Measurement of ACC inhibition activity ([14C]-NaHCO3 incorporation)
# Type: biochemical
# condition_summary: ACC inhibition activity rate at 1 μM; Table 3-II, Mode 2 benzimidazole compounds (numbers = x-II); read-out: ACC Inhibition (%)
# Description: A male SD rat was deprived of food for two days and then fed a high-sucrose diet (component) for two days. While anesthetized with ether, the descending vena cava was cut upon, the animal was bled, and the liver was rapidly recovered. […] A quantity of buffer A nine times the weight of the liver was added, the mixture was centrifuged for 10 minutes at 1,000 g, the supernatant was recovered, and the supernatant was centrifuged for another 10 minutes at 17,000 g. […]
Reported inhibition at 1 µM values for the following compounds.
Field: numeric (%). Do not append units.

Example compounds with recorded inhibition at 1 µM:
O=C(O)c1cccc(-c2noc(-c3ccc4c(c3)nc(-c3ccccc3)n4-c3ccc(C(F)(F)F)cc3)n2)c1; 57
CCCCCC(=O)NS(=O)(=O)c1ccccc1NC(=O)c1ccc2c(c1)nc(-c1cc(C(F)(F)F)cc(C(F)(F)F)c1)n2CCC(C)C; 50
CC(C)(C)c1ccc(C(=O)NS(=O)(=O)c2ccccc2NC(=O)c2ccc3nc(-c4cccc(C(F)(F)F)c4)n(-c4ccccc4)c3c2)cc1; 89
CCCCCC(=O)NS(=O)(=O)c1ccccc1NC(=O)c1ccc2nc(-c3cccc(C(F)(F)F)c3)n(-c3ccccc3)c2c1; 54

Prompt: What does the record list as inhibition at 1 µM for `CCCCCC(=O)NS(=O)(=O)c1ccccc1NC(=O)c1ccc2c(c1)nc(-c1cc(C(F)(F)F)cc(C(F)(F)F)c1)n2-c1ccc(C(F)(F)F)cc1` ?
Response: 92
